Species on record: Rattus norvegicus
Test: Inverse agonist activity at central-type benzodiazepine receptor in Sprague-Dawley rat cerebrocortical synaptoneurosomes assessed as decrease in 36Cl- flow after 10 secs by liquid-phase scintillation beta-counting method
Active and inactive are the calls of the source. The rule behind the calls is not given here.
OBSERVABLE: Activity

Reference set (5 entries):
CCCN(CCC)C(=O)c1cc2c(C(=O)OCC)ncn2c2ccc(F)cc12; Active
CCCCN(C)C(=O)c1cc2c(C(=O)OC(C)(C)C)ncn2c2ccccc12; Active
CCOC(=O)Cc1c(-c2ccccc2)c2ccccc2n2cnc(C(=O)OCC)c12; Active
CCOC(=O)c1ncn2c1c(C(=O)OCC)c(-c1ccccc1)c1ccccc12; Active
CCCCN(C)C(=O)c1cc2c(C(=O)OCC)ncn2c2ccccc12; Active

Given the compound `CC(C)(C)OC(=O)c1ncn2c1cc(-c1ccccc1)c1ccccc12` , what is its reported Activity?
Active

Please answer likewise for `CCOC(=O)c1ncn2c1cc(C(=O)N(C)Cc1ccccc1)c1cc(F)ccc12`
Active

// same read-out, input: `CCOC(=O)c1ncn2c1cc(C(=O)N(C)Cc1ccccc1)c1ccccc12`
Active

---

Species on record: Bos taurus
Experiment: Selectivity ratio, ratio of Ki for central-type benzodiazepine receptor in bovine cortical membrane to Ki for central-type benzodiazepine receptor in bovine cortical membrane in presence of 50 uM of GABA
Assay type: cell membranes
Parameter threshold = 1. Response is 1.0 when Ratio Ki meets or exceeds it, else 0.0.

CCCc1c(C(=O)N(CC)CC)c2ccccc2n2cnc(C(=O)OCC)c12; 0.0

Hello, I need to know if `CCOC(=O)Cc1c(-c2ccccc2)c2ccccc2n2cnc(C(=O)OCC)c12` has measured Ratio Ki not below 1. Thanks!
0.0

What do we get for CCOC(=O)c1ncn2c1CN(C)C(=O)c1cc(F)ccc1-2 [FLUMAZENIL] ?
1.0

Next: `CCOC(=O)c1ncn2c1cc(C(=O)N(C)C)c1ccccc12`
1.0

Try the compound `CCCN(CCC)C(=O)c1cc2c(C(=O)OCC)ncn2c2ccc(F)cc12`
0.0

What do we get for `CCCCN(C)C(=O)c1cc2c(C(=O)OC(C)(C)C)ncn2c2ccccc12` ?
0.0

Repeat with `CN(C)C(=O)c1cc2c(C(=O)OC(C)(C)C)ncn2c2ccccc12`
1.0

---

Test system: Mus musculus
Test: Anxiolytic activity against mouse assessed as increase in time spent in light box at 10 mg/kg, po administered 30 mins before test by light-dark box test
Format: functional, organism-based
The source made the active and inactive calls. The rule behind the calls is not given here.
API: response.call in y (active), n (inactive)

CCCN(CCC)C(=O)c1c(CC)c2c(C(=O)OCC)ncn2c2ccccc12; y
CCCN(CCC)C(=O)c1c(C)c2c(C(=O)OC(C)(C)C)ncn2c2ccccc12; y
CCCN(CCC)C(=O)c1c(C)c2c(C(=O)OCC)ncn2c2ccccc12; y
CCCCN(C)C(=O)c1cc2c(C(=O)OCC)ncn2c2ccccc12; y
Cc1c(C(=O)N(C)Cc2ccccc2)c2ccccc2n2cnc(C(=O)OC(C)(C)C)c12; n

--- query ---
Recorded call for `CCOC(=O)c1ncn2c1cc(C(=O)N(C)C)c1ccccc12` ?
y

---

Species: Homo sapiens
Assay: Selectivity ratio, ratio of Ki for central-type benzodiazepine receptor in human cortical membrane to Ki for central-type benzodiazepine receptor in human cortical membrane in presence of 50 uM of GABA
Type: cell membranes
OBSERVABLE: Ratio Ki
// print number alone

Example results:
CCOC(=O)c1ncn2c1CN(C)C(=O)c1cc(F)ccc1-2; 1.02
CC(=O)N1Cc2c(C(=O)OC(C)(C)C)ncn2-c2ccccc21; 1.04
CC(=O)N1Cc2c(C(=O)OC(C)(C)C)ncn2-c2ccc(F)cc21; 1
CCOC(=O)c1ncn2c1CN(C(C)=O)c1cc(F)ccc1-2; 0.95

Shifting focus to the compound that follows.
I would be grateful if you could share the reported Ratio Ki for `CN1C(=O)CN=C(c2ccccc2F)c2cc([N+](=O)[O-])ccc21` .
1.61

---

Organism: Bos taurus
Test: Selectivity ratio, ratio of Ki for central-type benzodiazepine receptor in bovine cortical membrane to Ki for central-type benzodiazepine receptor in bovine cortical membrane in presence of 50 uM of GABA
Type: cell membranes
Below: a set of entries, each annotated with reported Ratio Ki.
Give your answer as a number; write no unit.

CCOC(=O)c1ncn2c1c(C)c(C(=O)N(C)Cc1ccccc1)c1ccccc12; 1.1
CCCCN(C)C(=O)c1cc2c(C(=O)OCC)ncn2c2ccccc12; 0.76
CCCN(CCC)C(=O)c1c(C)c2c(C(=O)OCC)ncn2c2ccccc12; 1.3
CN(Cc1ccccc1)C(=O)c1ncn2c1cc(-c1ccccc1)c1ccccc12; 0.92
CN(C)C(=O)c1ncn2c1cc(-c1ccccc1)c1ccccc12; 1.44
CCCN(CCC)C(=O)c1c(CC)c2c(C(=O)OCC)ncn2c2ccccc12; 1.5
CCOC(=O)c1ncn2c1c1c(c3ccccc32)CCC1; 1.3
C#CCN(C)C(=O)c1c(C)c2c(C(=O)OCC)ncn2c2ccccc12; 1
CCCc1c(C(=O)N(CCC)CCC)c2ccccc2n2cnc(C(=O)OCC)c12; 1.1
CCOC(=O)c1ncn2c1c(C)c(C(=O)O)c1ccccc12; 1.2

// below: Ratio Ki requested for another compound
Item `CCOC(=O)c1ncn2c1c(CO)c(-c1ccccc1)c1ccccc12` has what recorded Ratio Ki?
1.18

---

Assay: Displacement of [3H]-flumazenil from central-type benzodiazepine receptor in bovine cortical membrane after 90 mins by liquid-phase scintillation beta-counting method
Format: cell membranes, Bos taurus
The following molecules are listed with their measured pKi values.
Bear in mind: pKi is minus log10 of a mol/L concentration; give just that figure.

In the examples that follow, each entry is paired with its recorded pKi.
CCCCN(C)C(=O)c1cc2c(C(=O)OC(C)(C)C)ncn2c2ccccc12; 8.74
CCOC(=O)c1ncn2c1c(C)c(C(=O)N(C)Cc1ccccc1)c1ccccc12; 8.19
CCOC(=O)c1ncn2c1cc(C(=O)N1CCN(C)CC1)c1ccccc12; 7.26
CC(C)(C)OC(=O)c1ncn2c1cc(-c1ccccc1)c1ccccc12; 7.26

As a next step, examine the molecule that follows.
Which pKi is reported for this molecule? `CCCN(CCC)C(=O)c1c(CC)c2c(C(=O)OCC)ncn2c2ccccc12`
8.60

---

Species on record: Bos taurus
Assay: Selectivity ratio, ratio of Ki for central-type benzodiazepine receptor in bovine cortical membrane to Ki for central-type benzodiazepine receptor in bovine cortical membrane in presence of 50 uM of GABA
Format: cell membranes
The reader will find reported Ratio Ki values listed item by item below.
Answer with the value's number alone.

Consider the reported Ratio Ki for these molecules:
CCCc1c(C(=O)N(CCC)CCC)c2ccccc2n2cnc(C(=O)OC(C)(C)C)c12; 1
CCCN(CCC)C(=O)c1cc2c(C(=O)OCC)ncn2c2ccccc12; 1

Please turn your attention to the following entry.
Given the molecule `CC(=O)N1Cc2c(C(=O)OC(C)(C)C)ncn2-c2ccccc21` , what is its reported Ratio Ki?
0.98
